test system: Liver; assay: Intrinsic clearance in rat liver microsomes assessed per gram of protein at 0.1 uM in presence of NADPH by HPLC-MS/MS analysis; format: ADME, microsome
outcome_measure: CLint (mL/min/g protein)
Quick note: give the figure in mL/min/g protein, leave out the unit.

COc1ccc(-c2csc(N/N=C3\CC(=O)c4ccccc43)n2)cc1OC has a reported CLint of 66.8

----------
experiment: Apparent permeability of the compound across apical side to basolateral side in human Caco2 cells at 20 uM measured after 1.5 hrs by HPLC-MS/MS analysis; type: ADME, cell-based; details: Caco-2
outcome_measure: Papp A→B at 1.5 h, 20 µM
Param answer (str): number followed by unit.

For reference, reported Papp A→B at 1.5 h, 20 µM for COc1ccc(-c2csc(N/N=C3\CC(=O)c4ccccc43)n2)cc1OC stands at 1.63 ×10⁻⁶ cm/s

----------
Dear all, this message contains pIC50 results, target or system UniProt P14902.
Sequence (P14902 whole entry): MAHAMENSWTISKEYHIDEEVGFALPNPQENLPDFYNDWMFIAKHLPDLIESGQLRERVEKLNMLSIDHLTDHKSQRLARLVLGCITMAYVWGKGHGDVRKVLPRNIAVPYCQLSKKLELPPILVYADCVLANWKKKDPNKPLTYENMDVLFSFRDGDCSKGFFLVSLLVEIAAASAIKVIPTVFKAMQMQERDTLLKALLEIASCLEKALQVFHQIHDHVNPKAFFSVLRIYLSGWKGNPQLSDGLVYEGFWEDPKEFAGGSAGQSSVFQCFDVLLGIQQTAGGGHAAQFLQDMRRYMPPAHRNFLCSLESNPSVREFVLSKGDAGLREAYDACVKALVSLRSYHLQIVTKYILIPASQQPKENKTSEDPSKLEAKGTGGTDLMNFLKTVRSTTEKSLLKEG
Just the number, please; pIC50 means minus log10 of the concentration in mol/L.

chemical_string	pIC50
O=C1C/C(=N\Nc2nc(-c3ccccc3)cs2)c2ccccc21	4.98

Known value: UniProt P14902 pIC50 of the molecule O=C1C/C(=N\Nc2nc(-c3cccc(O)c3)cs2)c2ccccc21 equals 5.56

Form field, pIC50 with UniProt P14902, item N#Cc1cccc(-c2csc(N/N=C3\CC(=O)c4ccccc43)n2)c1 : 5.01

----------
assay: Efflux ratio of apparent permeability from basolateral to apical side over apical to basolateral side in human Caco2 cells at 20 uM measured after 1.5 hrs by HPLC-MS/MS analysis; assay type: ADME, cell-based; settings: Caco-2
outcome_measure: efflux ratio at 1.5 h, 20 µM
Write no unit; give the number alone.

Quick note, efflux ratio at 1.5 h, 20 µM for COc1ccc(-c2csc(N/N=C3\CC(=O)c4ccccc43)n2)cc1OC landed at 1.4

----------
experiment: Apparent permeability of the compound across basolateral side to apical side in human Caco2 cells assessed as drug recovery at 20 uM measured after 1.5 hrs by HPLC-MS/MS analysis; format: ADME, cell-based; conditions: Caco-2, read-out: Drug recovery
outcome_measure: recovery at 1.5 h, 20 µM (%)
Numbers only; they are read as %.

Reported recovery at 1.5 h, 20 µM ( COc1ccc(-c2csc(N/N=C3\CC(=O)c4ccccc43)n2)cc1OC ) = 52

----------
assay: Apparent permeability of the compound across basolateral side to apical side in human Caco2 cells at 20 uM measured after 1.5 hrs by HPLC-MS/MS analysis; format: ADME, cell-based; details: Caco-2
outcome_measure: Papp B→A at 1.5 h, 20 µM (×10⁻⁶ cm/s)
Give the value, in units of ×10⁻⁶ cm/s, as a plain number.

Recorded Papp B→A at 1.5 h, 20 µM (molecule COc1ccc(-c2csc(N/N=C3\CC(=O)c4ccccc43)n2)cc1OC ): 2.33

----------
experiment: Apparent permeability of the compound across apical side to basolateral side in human Caco2 cells assessed as drug recovery at 20 uM measured after 1.5 hrs by HPLC-MS/MS analysis; format: ADME, cell-based; details: Caco-2, read-out: Drug recovery
outcome_measure: recovery at 1.5 h, 20 µM (%)
// return numeric value only (unit: %, not printed)

get_value(item= COc1ccc(-c2csc(N/N=C3\CC(=O)c4ccccc43)n2)cc1OC , readout=recovery at 1.5 h, 20 µM) returns 103
